# System: BE2-C (neuroblastoma) cancer cells
# assay_overview: MTT growth inhibition assay, BE2-C
# Format: cell-based
# settings: 72 h, ± standard error, read-out: Growth Inhibition Concentration, GI50
result_type: GI50
// unit must come after the numeric part

Worked examples follow.
- compound: "COc1cccc2c1[O][Sn]([CH3])([CH3])[S]C(SCc1ccc(C)cc1)=NN=C2 [Me2Sn(S4MoVa)]"
  GI50: "3300 nM"
- compound: "COc1cccc2c1[O][Sn]([CH3])([CH3])[S]C(SCc1ccccc1C)=NN=C2 [Me2Sn(S2MoVa)]"
  GI50: "2900 nM"

The following compounds each have a reported value; give each one's GI50.
1. N.N.[Cl][Pt][Cl] [Cisplatin, reference compound]
2. COc1cccc2c1[O][Sn]([CH3])([CH3])[S]C(SCc1ccccc1)=NN=C2 [Me2Sn(SBoVa)]
3. COc1cccc2c1[O][Sn]([c]1ccccc1)([c]1ccccc1)[S]C(SCc1ccccc1)=NN=C2 [Ph2Sn(SBoVa)]

Reply:
1: 1900 nM; 2: 2700 nM; 3: 500 nM
